Tested on: MS2 coat protein
Method Description: apparent KD of MS2 coat protein, switch OFF state (with FMN for OFF switches, without FMN for ON switches); designed switch direction (-1 OFF switch, 1 ON switch): -1; higher = weaker reporter binding
Condition Context: FMN input: 0 or 200 uM; Eterna round: R93 (includes R88 designs)
Recorded Metric: apparent KD of MS2 coat protein (nM)
Answers are plain numbers, in nM.

macromolecule_sequence="AGCAAGUUAGGAUAUGCGAAGUCAGGACACACACUGACGAAGCAGAAGGAACAUGAGGAUCACCCAUGUAAGCA [JR_Exclusion-4 65% 4]" result=16.6
macromolecule_sequence="AGCUAGUGAGGAUAUACGAACAAGUCAACGGACUGUAAGGGACAUGAGGAUCACCCAUGUAGAAGGCACUAGCA [Diamond 58]" result=148
macromolecule_sequence="AAGAAGCAAGGAUAUACAUGAGGAUCACCCAUGUAAAAGAAAGAAAAGGGAAAGAAAAGUAGAAGGUGCAAGAA [Menmaatre Seti I]" result=27

Give me apparent KD of MS2 coat protein for each of these sequences, listed below.
1. AAAAAGUGAGGAUAUACAUGAGGAUCACCCAUGUGAAAUCGGAAAAAAAACGAAAAAAGUAGAAGGCACAAAAA [Fiskers Exclusion 3 D3]
2. GAAAAGUCAGGAUAUGUACAAAAUAAAAUAAAAAUAAAAGUACAGAAGGGACAUGAGGAUCACCCAUGUAAAAG [Mat - Exclusion 4 - Mayanna - D120]
3. GAAAAGGCAGGAUAUGCAAGGAUAUAGAAGGAAAAAAAAAAACAUGAGGAUCACCCAUGUAGAAGGGCCAAAAG [salish99-ex2-10]

Response line:
[22.1, 54.2, 33.5]

Give me apparent KD of MS2 coat protein for each of these sequences, listed below.
1. CUCAUGUCAGGAUAUCCAUGAAAUGAAGUGAAAGAAAAGAAGGAGAAGGGACAUGAGGAUCACCCAUGUUAGAA [EteRNA is fun!]
2. AGCUAGUCAGGAUAUACGAACAUGUCAAAAGACGUGAGGGAACAUGAGGAUCACCCAUGUAGAAGGGACUAGCA [Moving G segment in JL's topscorer (74%)]

Response line:
[17.1, 37.5]

Give me apparent KD of MS2 coat protein for each of these sequences, listed below.
1. AAAACGGUAGGAUAUACGAUUGGGAACUAGACCGAGGAACCACAUGAGGAUCACCCAUGUAGAAGGGCCAAAAA [Ex2 Malc#14]
2. AAAAGUUGAGGAUAUACAAAAUGAUUGCGAAAUCAAUUAAAACAUGAGGAUCACCCAUGUAGAAGGCGAUAAAA [Banishment 4 - Jieux - Exclusion 2]
3. AACAGUACAGGAUAUACAUGAGGAUCACCCAUGUGAAAAUUAAGUGGCGUACCACAGUGUAGAAGGGUACUGGA [Moding Maslow Revisited (73) 25]
4. ACAAGAUCAGGAUAUACAUGAGGAUCACCCAUGUAUAUCAAAAAGGGACUUACUUAAUGUAGAAGGGAUCAUGU [EX3 280: Random 16]
5. AACUGACAUGAGGAUCACCCAUGUCAGGAUAUGAUUUGACGAAAAAAAAAAAGUCAUAUCAGAAGGGACAUGGA [Design 81: Sub-opt UB]

Response line:
1. 16.7
2. 21.6
3. 62.7
4. 13.9
5. 41.5

Every entry's value here was drawn from the supplement of paper PMC9170038.
